Values compiled from PubChem BioAssay AID1963844.

# viability, T/C values compiled below
# Tested on: 422866-222-R5-J1-PDC complex spheroid viability
# experiment description: Anticancer human tumor 422866-222-R5-J1-PDC patient-derived pancreatic adenocarcinoma cell line growth inhibition [POLQ]
# measurement context: second compound 0.316 µM; first compound 3.16 µM; stronger effect = lower value

compound | viability, T/C, %
CC(C)n1c(=O)n(C)c2cnc3cc(F)c(-c4ccc(OCCCN5CCCCC5)nc4)cc3c21 + Nc1ccc(C#CCN(C(=O)Cc2ncc(C(F)(F)F)cc2C(F)(F)F)c2ccc(F)cc2)nn1 | 71.8
CC(C)n1c(=O)n(C)c2cnc3cc(F)c(-c4ccc(OCCCN5CCCCC5)nc4)cc3c21 + COC1C(OC(N)=O)C(O)C(Oc2ccc3c(O)c(NC(=O)c4ccc(O)c(CC=C(C)C)c4)c(=O)oc3c2C)OC1(C)C | 34
CCCS(=O)(=O)Nc1ccc(F)c(C(=O)c2c[nH]c3ncc(-c4ccc(Cl)cc4)cc23)c1F + Nc1ccc(C#CCN(C(=O)Cc2ncc(C(F)(F)F)cc2C(F)(F)F)c2ccc(F)cc2)nn1 | 164
COc1cc2cc(C(=O)CCC(=O)O)sc2cc1OC + COC1C(OC(N)=O)C(O)C(Oc2ccc3c(O)c(NC(=O)c4ccc(O)c(CC=C(C)C)c4)c(=O)oc3c2C)OC1(C)C | 93.8
COc1cccc2c1C(=O)c1c(O)c3c(c(O)c1C2=O)CC(O)(C(=O)CO)CC3OC1CC(N)C(O)C(C)O1 (stereo not given) + Nc1ccc(C#CCN(C(=O)Cc2ncc(C(F)(F)F)cc2C(F)(F)F)c2ccc(F)cc2)nn1 | 28.6

---

# Test system: 422866-222-R5-J1-PDC complex spheroid viability
# experiment description: Anticancer human tumor 422866-222-R5-J1-PDC cell line growth inhibition [POLQ]
# measurement context: second compound 0.1 µM; first compound 3.16 µM; stronger effect = lower value

compound | viability, T/C / %
CC1COCCN1c1cc(-c2ccnn2C)c2ccnc(-c3ccn[nH]3)c2n1 (stereo not drawn) + Cc1cccc(N(C)C(=O)C2C(O)CCN2c2nc(C)cc(C(F)(F)F)c2C#N)c1 | 65.4
COc1ccc([C@@H](O)c2cc(-c3ncnc4cc(N5CCOCC5)ccc34)c(F)cc2Cl)nn1 + Nc1ccc(C#CCN(C(=O)Cc2ncc(C(F)(F)F)cc2C(F)(F)F)c2ccc(F)cc2)nn1 | 46.2
CC1COCCN1c1cc(C2(S(C)(=N)=O)CC2)nc(-c2ccnc3[nH]ccc23)n1 (stereo not drawn) + COC1C(OC(N)=O)C(O)C(Oc2ccc3c(O)c(NC(=O)c4ccc(O)c(CC=C(C)C)c4)c(=O)oc3c2C)OC1(C)C | 46.6

---

# Test system: 422866-222-R5-J1-PDC complex spheroid viability
# experiment description: Anticancer human tumor 422866-222-R5-J1-PDC cell line growth inhibition [POLQ];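 further: spheroids exposed to compounds for one week before readout; percent of DMSO vehicle wells luminescence so 100% = untreated viability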
# measurement context: second compound 10 µM; first compound 10 µM; stronger effect = lower value
# viability, T/C values compiled below
metric name: viability, T/C (%)

compound | units label | result
COc1cc(C2c3cc4c(cc3C(OC3OC5COC(C)OC5C(O)C3O)C3COC(=O)C23)OCO4)cc(OC)c1O (stereo not drawn) + COC1C(OC(N)=O)C(O)C(Oc2ccc3c(O)c(NC(=O)c4ccc(O)c(CC=C(C)C)c4)c(=O)oc3c2C)OC1(C)C | % | 36.7
O=C(c1cc(Cc2n[nH]c(=O)c3ccccc23)ccc1F)N1CCN(C(=O)C2CC2)CC1 + Cc1cccc(N(C)C(=O)C2C(O)CCN2c2nc(C)cc(C(F)(F)F)c2C#N)c1 | % | 76.4
COc1cc2cc(C(=O)CCC(=O)O)sc2cc1OC + Cc1cccc(N(C)C(=O)C2C(O)CCN2c2nc(C)cc(C(F)(F)F)c2C#N)c1 | % | 112

---

# viability, T/C values compiled below
# Tested on: 422866-222-R5-J1-PDC complex spheroid viability
# experiment description: Anticancer human tumor 422866-222-R5-J1-PDC cell line growth inhibition [POLQ];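 further: spheroids exposed to compounds for one week before readout; percent of DMSO vehicle wells luminescence so 100% = untreated viability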
# measurement context: second compound 0.316 µM; first compound 3.16 µM; stronger effect = lower value
metric name: viability, T/C (%)

compound | metric name | result
CC1COCCN1c1cc(C2(S(C)(=N)=O)CC2)nc(-c2ccnc3[nH]ccc23)n1 (stereo not drawn) + Cc1cccc(N(C)C(=O)C2C(O)CCN2c2nc(C)cc(C(F)(F)F)c2C#N)c1 | viability, T/C | 47.1
COc1ccc([C@@H](O)c2cc(-c3ncnc4cc(N5CCOCC5)ccc34)c(F)cc2Cl)nn1 + Nc1ccc(C#CCN(C(=O)Cc2ncc(C(F)(F)F)cc2C(F)(F)F)c2ccc(F)cc2)nn1 | viability, T/C | 46.2
COc1cc2cc(C(=O)CCC(=O)O)sc2cc1OC + Nc1ccc(C#CCN(C(=O)Cc2ncc(C(F)(F)F)cc2C(F)(F)F)c2ccc(F)cc2)nn1 | viability, T/C | 86.2

---

# Tested on: 422866-222-R5-J1-PDC complex spheroid viability
# experiment description: Anticancer human tumor 422866-222-R5-J1-PDC cell line growth inhibition [POLQ];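 further: spheroids exposed to compounds for one week before readout; percent of DMSO vehicle wells luminescence so 100% = untreated viability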
# measurement context: second compound 0.0316 µM; first compound 0.316 µM; stronger effect = lower value
# Method: Multicellular complex tumor spheroid response to Polymerase (POL) inhibitors (novobiocin, ART-558, RP6685) in combination with a variety of drugs and investigational agents in selected tumor cell lines The POL inhibitors (novobiocin, ART-558, and RP6685) were evaluated both individually and in combination with standard of care and investigational anticancer small molecules within a complex spheroid model of solid tumors. . […]
Mark each entry criterion met if its viability, T/C sits below 80%, and criterion not met for all others.

compound | study target | label value
CCc1cc2c(N3CCc4c(cc(Cn5ccnc5)cc4-c4cn(C)nc4C(F)(F)F)C3=O)ccnc2c(OC)n1 + COC1C(OC(N)=O)C(O)C(Oc2ccc3c(O)c(NC(=O)c4ccc(O)c(CC=C(C)C)c4)c(=O)oc3c2C)OC1(C)C | 422866-222-R5-J1-PDC complex spheroid viability | criterion not met
COc1cccc(OCCCN)c1-c1cc(Nc2cnc(C#N)cn2)n[nH]1 + COC1C(OC(N)=O)C(O)C(Oc2ccc3c(O)c(NC(=O)c4ccc(O)c(CC=C(C)C)c4)c(=O)oc3c2C)OC1(C)C | 422866-222-R5-J1-PDC complex spheroid viability | criterion met
CC1COCCN1c1cc(-c2ccnn2C)c2ccnc(-c3ccn[nH]3)c2n1 (stereo not given) + Cc1cccc(N(C)C(=O)C2C(O)CCN2c2nc(C)cc(C(F)(F)F)c2C#N)c1 | 422866-222-R5-J1-PDC complex spheroid viability | criterion met
Nc1ccn(C2OC(CO)C(O)C2(F)F)c(=O)n1 (stereo not given) + Nc1ccc(C#CCN(C(=O)Cc2ncc(C(F)(F)F)cc2C(F)(F)F)c2ccc(F)cc2)nn1 | 422866-222-R5-J1-PDC complex spheroid viability | criterion met

---

# viability, T/C values compiled below
# Tested on: 422866-222-R5-J1-PDC complex spheroid viability
# experiment description: Anticancer human tumor 422866-222-R5-J1-PDC cell line growth inhibition [POLQ];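 further: spheroids exposed to compounds for one week before readout; percent of DMSO vehicle wells luminescence so 100% = untreated viability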
# measurement context: second compound 0.1 µM; first compound 0.1 µM; stronger effect = lower value
metric name: viability, T/C (%)

molecule | result
O=C(Nc1ccc(O)c(NS(=O)(=O)c2ccc(F)cc2)c1)c1ccc(-c2ccccc2)cc1 + COC1C(OC(N)=O)C(O)C(Oc2ccc3c(O)c(NC(=O)c4ccc(O)c(CC=C(C)C)c4)c(=O)oc3c2C)OC1(C)C | 87.3
CCc1cc2c(N3CCc4c(cc(Cn5ccnc5)cc4-c4cn(C)nc4C(F)(F)F)C3=O)ccnc2c(OC)n1 + Nc1ccc(C#CCN(C(=O)Cc2ncc(C(F)(F)F)cc2C(F)(F)F)c2ccc(F)cc2)nn1 | 103
CC1COCCN1c1cc(-c2ccnn2C)c2ccnc(-c3ccn[nH]3)c2n1 (configuration not stated) + COC1C(OC(N)=O)C(O)C(Oc2ccc3c(O)c(NC(=O)c4ccc(O)c(CC=C(C)C)c4)c(=O)oc3c2C)OC1(C)C | 52.9
CNCc1ccc(-c2[nH]c3cc(F)cc4c3c2CCNC4=O)cc1 + Nc1ccc(C#CCN(C(=O)Cc2ncc(C(F)(F)F)cc2C(F)(F)F)c2ccc(F)cc2)nn1 | 87.5
CCc1c2c(nc3ccc(O)cc13)-c1cc3c(c(=O)n1C2)COC(=O)[C@]3(O)CC + COC1C(OC(N)=O)C(O)C(Oc2ccc3c(O)c(NC(=O)c4ccc(O)c(CC=C(C)C)c4)c(=O)oc3c2C)OC1(C)C | 30.6
CCc1cc2c(N3CCc4c(cc(Cn5ccnc5)cc4-c4cn(C)nc4C(F)(F)F)C3=O)cc(C)nc2c(OC)n1 + COC1C(OC(N)=O)C(O)C(Oc2ccc3c(O)c(NC(=O)c4ccc(O)c(CC=C(C)C)c4)c(=O)oc3c2C)OC1(C)C | 88.8
C=CC(=O)N1CCN(c2nc(=O)n(-c3c(C)ccnc3C(C)C)c3nc(-c4c(O)cccc4F)c(F)cc23)C(C)C1 (configuration not stated) + Cc1cccc(N(C)C(=O)C2C(O)CCN2c2nc(C)cc(C(F)(F)F)c2C#N)c1 | 25.2
